# measurementTarget: mouse TMEM16A mutant G510P (Mus musculus, UniProt Q8BHY3, G510P)
# Construct: expressed in transfected cells; host or cells: HEK293T
# Sequence (Q8BHY3 whole entry G510P): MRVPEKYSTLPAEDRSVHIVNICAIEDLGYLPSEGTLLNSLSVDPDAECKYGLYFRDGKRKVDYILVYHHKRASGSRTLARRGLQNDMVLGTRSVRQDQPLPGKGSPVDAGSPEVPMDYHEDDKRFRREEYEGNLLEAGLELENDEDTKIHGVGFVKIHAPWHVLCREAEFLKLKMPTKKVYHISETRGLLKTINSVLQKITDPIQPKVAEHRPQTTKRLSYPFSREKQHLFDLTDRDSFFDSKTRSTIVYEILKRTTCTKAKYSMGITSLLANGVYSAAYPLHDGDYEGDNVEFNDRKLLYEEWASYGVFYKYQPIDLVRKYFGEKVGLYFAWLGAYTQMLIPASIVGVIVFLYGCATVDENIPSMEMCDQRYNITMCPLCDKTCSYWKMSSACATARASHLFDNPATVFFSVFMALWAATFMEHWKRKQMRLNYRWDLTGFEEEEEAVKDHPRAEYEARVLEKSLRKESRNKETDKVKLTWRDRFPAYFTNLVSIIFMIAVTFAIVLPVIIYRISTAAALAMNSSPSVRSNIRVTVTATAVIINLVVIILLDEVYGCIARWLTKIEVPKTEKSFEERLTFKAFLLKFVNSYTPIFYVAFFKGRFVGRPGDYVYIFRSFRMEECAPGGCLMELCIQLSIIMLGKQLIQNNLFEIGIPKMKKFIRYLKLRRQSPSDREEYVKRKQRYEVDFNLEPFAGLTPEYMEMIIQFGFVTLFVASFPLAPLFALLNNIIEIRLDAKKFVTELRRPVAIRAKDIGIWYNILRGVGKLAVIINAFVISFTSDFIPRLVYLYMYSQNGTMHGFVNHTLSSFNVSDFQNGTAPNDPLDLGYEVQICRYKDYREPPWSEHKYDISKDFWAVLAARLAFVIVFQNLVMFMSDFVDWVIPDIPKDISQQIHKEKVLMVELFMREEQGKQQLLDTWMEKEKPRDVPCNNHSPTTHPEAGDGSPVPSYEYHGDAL
# protocolText: Inside-out patch recording of 1PBC block, mutant G510P
# Assay type: cell-based
# measurementSetup: -140 mV; 15 µM Ca2+
# Procedure: HEK293T cells (ATCC CRL-1573) were maintained in Dulbecco’s modified Eagle’s medium (DMEM; Sigma-Aldrich) supplemented with 10 U ml^−1 penicillin, 0.1 mg ml^−1 streptomycin (Sigma-Aldrich), 2 mM L-glutamine (Sigma-Aldrich), and 10% FBS (Sigma-Aldrich) in a humidified atmosphere containing 5% CO2 at 37 °C. […]

compound	IC50 (µM)
N#Cc1c(C(F)(F)F)cc(O)n2c1nc1ccccc12 [1PBC]	98.6
